# protocol-details: Single oral dose pharmacokinetics of dotinurad in plasma, phase 1 study
# Assay type: in vivo, human (healthy Chinese adults)
# condition-label: human, plasma, po, 10 mg
value-kind: Vd/F (L)
Report as a plain number; the unit L is understood.

Look up Vd/F: O=C(c1cc(Cl)c(O)c(Cl)c1)N1CS(=O)(=O)c2ccccc21
11.6

###

# protocol-details: Single oral dose pharmacokinetics of dotinurad in plasma, phase 1 study
# Type: in vivo, human (healthy Chinese adults)
# condition-label: human, plasma, oral
value-kind: half-life

For the molecule shown here, O=C(c1cc(Cl)c(O)c(Cl)c1)N1CS(=O)(=O)c2ccccc21 , give the reported half-life.
~10 h

###

# protocol-details: Single oral dose pharmacokinetics of dotinurad in plasma, phase 1 study
# Type: in vivo, human (healthy Chinese adults)
# condition-label: human, plasma, po, 1 mg
value-kind: half-life (h)
Reply with just the number (in h).

Fill in the blank: the reported half-life of O=C(c1cc(Cl)c(O)c(Cl)c1)N1CS(=O)(=O)c2ccccc21 is ____.
10.1

###

# protocol-details: Single oral dose pharmacokinetics of dotinurad in plasma, phase 1 study
# Format: in vivo, human (healthy Chinese adults)
# condition-label: human, plasma, po, 1 mg
value-kind: Vd/F (L)
Dear colleague, please return just the value in L, with no unit written.

Which Vd/F reading was recorded for the compound O=C(c1cc(Cl)c(O)c(Cl)c1)N1CS(=O)(=O)c2ccccc21 [Dotinurad] ?
11.1

###

# protocol-details: Single oral dose pharmacokinetics of dotinurad in plasma, phase 1 study
# Format: in vivo, human (healthy Chinese adults)
# condition-label: human, plasma, po, 4 mg
value-kind: AUC(0-inf) (ng·h/mL)
Numeric only. Scale: ng·h/mL

// lookup AUC(0-inf) for O=C(c1cc(Cl)c(O)c(Cl)c1)N1CS(=O)(=O)c2ccccc21
4890

###

# protocol-details: Multiple once-daily oral dose pharmacokinetics of dotinurad in plasma
# Format: in vivo, human (healthy Chinese adults)
# condition-label: human, plasma, oral, 4 mg
value-kind: AUC (ng·h/mL)
Give just the numeric value; ng·h/mL need not be written.

Any idea what AUC was measured for O=C(c1cc(Cl)c(O)c(Cl)c1)N1CS(=O)(=O)c2ccccc21 ?
4470

###

# protocol-details: Single oral dose pharmacokinetics of dotinurad in plasma, phase 1 study
# Assay type: in vivo, human (healthy Chinese adults)
# condition-label: human, plasma, po, 1 mg
value-kind: Cmax (ng/mL)
Numeric answer only, unit ng/mL assumed.

Entry O=C(c1cc(Cl)c(O)c(Cl)c1)N1CS(=O)(=O)c2ccccc21 : reported Cmax = ?
104

###

# protocol-details: Single oral dose pharmacokinetics of dotinurad in plasma, phase 1 study
# Type: in vivo, human (healthy Chinese adults)
# condition-label: human, plasma, po, 4 mg
value-kind: Cmax (ng/mL)
The reply should contain only the number, in ng/mL.

For O=C(c1cc(Cl)c(O)c(Cl)c1)N1CS(=O)(=O)c2ccccc21 , what is its reported Cmax?
365

###

# protocol-details: Multiple once-daily oral dose pharmacokinetics of dotinurad in plasma
# Type: in vivo, human (healthy Chinese adults)
# condition-label: human, plasma, oral, 4 mg
value-kind: half-life (h)
Provide only the numeric value, understood in h.

// lookup half-life for O=C(c1cc(Cl)c(O)c(Cl)c1)N1CS(=O)(=O)c2ccccc21
10.1

###

# protocol-details: Single oral dose pharmacokinetics of dotinurad in plasma, phase 1 study
# Type: in vivo, human (healthy Chinese adults)
# condition-label: human, plasma, oral
value-kind: Vd/F

I would be grateful if you could share the reported Vd/F for O=C(c1cc(Cl)c(O)c(Cl)c1)N1CS(=O)(=O)c2ccccc21 .
11.1 to 11.7 L
